Target: human recombinant D2 receptor (Homo sapiens (Human), UniProt P14416)
Sequence (P14416 whole entry): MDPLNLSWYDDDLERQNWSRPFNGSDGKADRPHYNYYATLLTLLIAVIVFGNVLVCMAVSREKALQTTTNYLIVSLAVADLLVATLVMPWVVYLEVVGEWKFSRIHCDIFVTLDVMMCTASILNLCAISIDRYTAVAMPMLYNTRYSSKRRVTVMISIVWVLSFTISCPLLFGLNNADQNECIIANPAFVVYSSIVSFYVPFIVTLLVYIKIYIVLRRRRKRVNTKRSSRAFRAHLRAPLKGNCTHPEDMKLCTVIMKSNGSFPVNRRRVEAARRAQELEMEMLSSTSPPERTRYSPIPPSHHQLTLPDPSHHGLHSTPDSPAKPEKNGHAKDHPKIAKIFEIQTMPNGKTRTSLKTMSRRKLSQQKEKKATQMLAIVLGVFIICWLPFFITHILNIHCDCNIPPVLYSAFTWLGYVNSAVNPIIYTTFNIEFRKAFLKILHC
Assay: D2 receptor antagonism activity test (inhibition of dopamine-induced decrease of cAMP production, LANCE cAMP 384 Kit)
Conditions: read-out: D2 receptor antagonism (IC50, mol/L), HEK293 cells expressing human recombinant D2 receptor, 0.1 nM-10000 nM
MEASURED_ENDPOINT: pIC50
The scale used: pIC50 is minus the common logarithm of the concentration in molar units.

Quick one: pIC50 for `O=C1Cc2cc(CCN3CCN(c4cc(F)cc5sccc45)CC3)ccc2N1` ?
7.96

Quick one: pIC50 for `Cc1nc2n(c(=O)c1CCN1CCN(c3cc(F)cc4sccc34)CC1)CCCC2` ?
7.98

Quick one: pIC50 for `O=c1ccc2ccc(CCN3CCN(c4cccc5c4CCS5)CC3)cc2[nH]1` ?
7.07

Quick one: pIC50 for `O=C1COc2cc(F)c(CCN3CCN(c4cccc5sccc45)CC3)cc2N1` ?
7.21

Quick one: pIC50 for `O=C1Cc2cc(CCCCN3CCN(c4cccc5sccc45)CC3)ccc2N1` ?
7.55

Quick one: pIC50 for `O=C1CCc2cc(CCN3CCC(c4cccc5sccc45)CC3)ccc2N1` ?
7.91

Quick one: pIC50 for `O=C1Cc2cc(CCN3CCN(c4cncc5sccc45)CC3)c(Cl)cc2N1` ?
6.57

Quick one: pIC50 for `N#Cc1ccc2[nH]cc(CCCN3CCN(c4cccc5sccc45)CC3)c2c1` ?
7.66

Quick one: pIC50 for `O=c1ccc2ccc(CCN3CCN(c4cccc5sccc45)CC3)cc2[nH]1` ?
8.15

Quick one: pIC50 for `Cc1nc2ccc(CCCCCN3CCN(c4cccc5sccc45)CC3)cc2c(=O)[nH]1` ?
7.29

* * *

Could you please report measured IC50 for the items listed next?
Biological target: human recombinant 5-HT2A receptor (Homo sapiens (Human))
Sequence (P28223 whole entry): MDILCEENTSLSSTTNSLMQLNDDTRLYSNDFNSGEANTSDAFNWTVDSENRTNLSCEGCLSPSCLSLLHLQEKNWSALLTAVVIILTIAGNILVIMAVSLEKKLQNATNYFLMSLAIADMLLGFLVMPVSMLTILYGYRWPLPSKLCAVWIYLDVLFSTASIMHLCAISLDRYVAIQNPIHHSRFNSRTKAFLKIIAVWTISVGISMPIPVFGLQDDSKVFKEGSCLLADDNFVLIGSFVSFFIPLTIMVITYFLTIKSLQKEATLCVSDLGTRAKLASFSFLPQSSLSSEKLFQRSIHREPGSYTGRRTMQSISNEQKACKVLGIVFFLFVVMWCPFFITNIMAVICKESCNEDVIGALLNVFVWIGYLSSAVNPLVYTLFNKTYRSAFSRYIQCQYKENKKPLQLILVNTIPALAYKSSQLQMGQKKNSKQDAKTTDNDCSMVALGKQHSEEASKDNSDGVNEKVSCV
Assay: 5-HT2A receptor antagonism activity test (FLIPR Calcium 5 Assay Kit)
Conditions: read-out: 5-HT2A receptor antagonism (IC50, mol/L); CHO-K1 cells expressing human recombinant 5-HT2A receptor; α-methyl-5-hydroxytryptamine 300 nM; 0.1 nM-10000 nM
Don't forget the unit after the value.

Quick one: IC50 for `O=C1CCc2cc(CCCCN3CCN(c4cccc5sccc45)CC3)ccc2N1` ?
400 nM

Quick one: IC50 for `CC(=O)Nc1nc2c(CCN3CCN(c4cccc5sccc45)CC3)cccc2s1` ?
41 nM

Quick one: IC50 for `O=C1Cc2cc(CCN3CCN(c4cncc5sccc45)CC3)c(Cl)cc2N1` ?
115 nM

Quick one: IC50 for `O=C1CCc2cc(CCN3CCN(c4cccc5sc(F)cc45)CC3)ccc2N1` ?
40.3 nM

Quick one: IC50 for `Cn1c(=O)[nH]c2cc(CCN3CCN(c4cccc5sccc45)CC3)ccc21` ?
356 nM

Quick one: IC50 for `O=C1COc2c(F)cc(CCN3CCN(c4cccc5sccc45)CC3)cc2N1` ?
104 nM

Quick one: IC50 for `O=C1Cc2cc(CCN3CCC(c4cccc5sccc45)CC3)c(Cl)cc2N1` ?
28.1 nM

Quick one: IC50 for `O=C1COc2ccc(CCCCN3CCN(c4cccc5sccc45)CC3)cc2N1` ?
711 nM

Quick one: IC50 for `O=c1ccc2ccc(CCCCCN3CCN(c4cccc5sccc45)CC3)cc2[nH]1` ?
209 nM

Quick one: IC50 for `O=C1Cc2cc(CCN3CCN(c4cc(F)cc5sccc45)CC3)ccc2N1` ?
17.5 nM

Quick one: IC50 for `Cc1nc2ccc(CCN3CCN(c4cccc5sccc45)CC3)cc2c(=O)[nH]1` ?
11.9 nM

Quick one: IC50 for `CC(=O)n1cc(CCCCN2CCN(c3cccc4sccc34)CC2)c2cc(C#N)ccc21` ?
1760 nM

Quick one: IC50 for `O=c1[nH]c2ccc(CCN3CCN(c4cccc5sc(F)cc45)CC3)cc2[nH]1` ?
157 nM

Quick one: IC50 for `O=C1CCc2ccc(CCN3CCN(c4cccc5sccc45)CC3)cc2N1` ?
169 nM

Quick one: IC50 for `CC(=O)Nc1nc2ccc(CCN3CCN(c4cccc5sccc45)CC3)cc2s1` ?
18.9 nM

Quick one: IC50 for `O=C1COc2c(F)cc(CCCCN3CCN(c4cccc5sccc45)CC3)cc2N1` ?
951 nM
